half-life at 1 μM values for the molecules below.
# test_protocol: Metabolic stability in dog liver microsomes (DLM)
# Assay type: in vitro ADME, beagle dogs
# conditions: male, beagle, dog, pooled dog liver microsomes, pH 7.4, 1 μM compound, 0.50 mg protein/mL, NADPH
property_label: half-life at 1 μM

- N[C@@]1(c2cccc(F)c2)CCCCC1=O [Compound 3R]: 40 min
- CNC1(c2ccccc2Cl)CCCCC1=O (racemic) [racemic ketamine, ketamine]: 2.4 min
- CN[C@@]1(c2ccc(F)cc2)CCCCC1=O [Compound 2R]: 38.7 min
- N[C@]1(c2cccc(F)c2)CCCCC1=O [Compound 3S]: 51.7 min
- N[C@]1(c2ccc(F)cc2)CCCCC1=O [Compound 1S]: > 145 min
- CN[C@]1(c2ccc(F)cc2)CCCCC1=O [Compound 2S]: 18.2 min

From: patent US20240300886A1
